- target.of.assay: T1, Recombinant human PSGL-1(ECD)-hFc1 (R&D Systems, Cat. 3345-PS) (human, UniProt Q14242 42-305)
- T1 construct: Bought; Gln42-Val295 counted on AAC50061; also called PSGL-1-Fc; PSGL-1-hFc1 chimera; not shown: human IgG1 Fc, Pro100-Lys330
- T1 sequence: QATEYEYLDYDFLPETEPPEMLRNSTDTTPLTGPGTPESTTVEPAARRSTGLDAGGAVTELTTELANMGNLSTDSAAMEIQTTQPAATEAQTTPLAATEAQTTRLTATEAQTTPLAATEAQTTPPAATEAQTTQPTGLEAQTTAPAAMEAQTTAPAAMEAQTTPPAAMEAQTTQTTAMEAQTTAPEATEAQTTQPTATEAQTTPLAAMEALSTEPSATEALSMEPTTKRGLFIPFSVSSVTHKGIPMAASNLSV
- assay.details: blocking ELISA vs VISTA-Fc, pH 6.0
pIC50: −log10 of the molar value.
quantity.measured: pIC50

* 18F02 (antibody, V domains shown, From mouse immunisation; only variable domains given) VH: QVQLQQPGAELVKPGASVKLSCKASGYTFTSYWMHWVKQRPGQGLEWIGMIHPNSGRTNYNEKFKSKATLTVDKSSSTAYMQLSSLTSEDSAVYYCARSDYWGQGTTLTVSS VL: DIVMTQAAFSNPVTLGTSASISCRSSKSLLHSDGITYLYWFLQRPGQSPQLLIYRMSNLASGVPDRFSGSGSGTDFTLRISRVEAEDVGVYYCAQMLEFPRTFGGGTKLEIK | 8.00
* 43B6 (antibody, V domains shown, Control anti-PSGL-1 mAb, recombinant; only variable domains given; also called 43B3) VH: EVQLQQSGPDLVKPGALVKISCKASGYSFTAYYIHWVKQSHGKSLEWIGRVNPNTGGTSYNPKFKGKAILNVDKSSSTAYMELRSLTSEDSAVYYCARSGSPYYRYDDWGQGTTLTVSS VL: ENVLTQSPAIMSASPGEKVTMTCRASSTVNSTYLHWFQQKSGASPKLWIYGSSNLASGVPARFSGSGSGTSYSLTISSVEAEDAATYYCQQYSGYPLTFGAGTTLELK | 8.05
* 16L15 (antibody, V domains shown, From mouse immunisation; only variable domains given) VH: DVKLVESGGGLVKLGGSLKLSCAASGFTFSSYYMSWVRQTPEKRLEWVATISNGGGSTYYPDSVKDRFTISRDNAKNTLYLQMSSLNSEDTAVYYCAKPLYYSNPWFAYWGQGTLVTVSA VL: DVLLTQTPLSLPVSLGDQASISCRSSQSIVHSNGNTYLEWYLQKPGQSPKLLIYKVSNRFSGVPDRFSGSGSGTDFTLKISRVEAEDLGVYYCFQGSHVPRTFGGGTKLEIK | 8.22
* 9F9 (antibody, V domains shown, Control anti-PSGL-1 mAb, recombinant; only variable domains given; also called 9F6) VH: EVQLVETGGGLVQPKGSLKLSCAASGFTFNTNAMNWVRQAPGKGLEWVARIRSKSNNYATYYADSVKDRFTISRDDTQSMIYLQMNNLKTEDTGMYYCVRGGSYWYFDVWGAGTTVTVSS VL: DVLMTQTPLSLPVSLGDQASISCRSSQSIVNSNGNTYLEWYLQKPGQSPKLLIYKVSNRFSGVPDRFSGSGSGTDFTLKISRVEAEDLGVYYCFQGSHVPWTFGGGTKLEIK | 8.10
* 20I15 (antibody, V domains shown, From mouse immunisation; only variable domains given; also called 20115) VH: EVKLVESGGGLVQPGGSLSLSCAASGFTFTDYYMSWVRQPPGKALEWLGFIRNKANGYTTEYSASVKGRFTISRDNSQSILYLQMNALRAEDSATYYCARTYLRRGYFDVWGTGTTVTVSS VL: DIVLTQSPASLAVSLGQRATISCRASKSVSTSGYSYMHWFQQKPGQPPKLLIYLASNLESGVPARFSGSGSGTDFTLNIHPVEEEDAATYYCQHSRELPLTFGAGTKLELK | 7.52
